- method: soluble on expression in E. coli; label from the status in PepcDB or PDB records
readoutKind: soluble on expression in E. coli

Solved cases (5 shown):
MSLHSVKASANRFTKTSQGRSWNTGNGSPDAICFAVDKPGIVVVGFAVYGGGGIHEYELEVLVDDSEHAGDSTHSHRWTSLELVKGTYTTDDSPSDIAEIRLDKVVPLKENVKYAVRLRNYGSRTANGDGGMTTVQCPDGVTFTFSTCSLSSNGTNQTRGQIPQILYYRSEFDGDLQSQLLSKANEEDKNCSRALSVVSTVVRAAKDLLHRALAVDADEGHHHHHH ... soluble
MAHHHHHHMRPYKRVLIKLSGGALADQTGNSFNSKRLEHIANEILSIVDLGIEVSIVIGGGNIFRGHLAEEWGIDRVEADNIGTLGTIINSLMLRGVLTSKTNKEVRVMTSIPFNAVAEPYIRLRAVHHLDNGYIVIFGGGNGQPFVTTDYPSVQRAIEMNSDAILVAKQGVDGVFTSDPKHNKSAKMYRKLNYNDVVRQNIQVMDQAALLLARDYNLPAHVFNFDEPGVMRRICLGEHVGTLINDDASLLVHEK ... soluble
MGSDKIHHHHHHMYLKETLDQFASIDNILKLLKKNPSFNKHCIQERLPQKTIITSNKQRKHIYIIEEGFMKLIFDDNKPRDFSYILSKGAFPFLPVYTEDIPEHTMMVALTDIVWWKIDISFFKGMMETEDPRNYLMLHQLAETRRRFYTIAYQEKLTSRESIYYSLSTMIEFGLRISEKIVELPEFLTYQILADHANTSKSYTSKVLGHLREEGILESQRKPWRINDVQKLQKLIEMNVPLVKIQKN ... not soluble
EIRLSNTQQTYAFLKKRLRDYKNETFAALFLDNQHRIIAYEELFSGTINTATVYPRPIVERVLQLNAAALILAHNHPSGLSDASQQDLAITERIRDALDLVDARLLDHIVIGDNEVYSIFAENKWVCN ... not soluble
MGSDKIHHHHHHMNPLNLIECLEQKERYTYNEGLIIDFILSHTERVLHMSIYELAEATNSSTSTIVRLCKKTETSGFKEFKIRLSRDLEIHYQAIRNVDANMPFLAQDSDLLIAKKIAQLTTETVQSTQQLLTEAMLNKSIDLLLTAENILAVGVSNSYIRLTDFQTKLLRIQLFIHLIPYQAEQFYLAINATKNDVAILVSYSGNTAEIVNEARIFAEGGTPIIAITSDLNSQLAKYATVILPIPNVEHADFKVSTFSSQLAIEYILNVLYSCIFSRNFDKNYTSQKNTPTSILKF ... not soluble

Read the next record carefully.
Query: Look up soluble on expression in E. coli for this sequence: `LSFSSAVKNELCRVETDRSSSLFELAAAARISGLIKVVNANEINLRLVTENAAFARRIFSQIKDLYGINAEISIRRSPKLKKNIVYIIVLTSSKGLMRILEDINIKVSEKVEYIPYARCMRKKEYRKAYLRGAFLASGSMSDPEKTYHLEITCHNMALATEVSDLMDSFKLHSKVTKRKGNYVVYLKEGENIVDFLNIIGAHSALLELENIRILKEMRNNVNRIVNCETANLQKTVDASVRQVENINYIKEHLGFDKLPENLREIAKMRLAYSDATLKELGEMLNPPLGKSGVNHRLRKLDKIAESLRNMKGEL`
Result: soluble

====

- method: soluble on expression in E. coli; label from the status in PepcDB or PDB records
readoutKind: soluble on expression in E. coli

Solved entries:
MKKIDSAVAVEPAATVPKGRKNNPEKTREDILKAAVAEFVAHGLTGARVDAIAERTKTSKRMIYYYFGSKEQLYVEVLEKLYGAIRNTESELNLGELEPVEAIHRVVEFTFDHHDSNVDFVRIVCIENIHNGENVKQSDTIQAKSQNIIRALDGILRRGEASGLFRDGVHPVDLHLMISSFCFYRISNRHTFSEIFQIELWSEEVKQRHKAMICDAVLRYLKR ... not soluble
MNMANVKIKIRDGLIDRLRNMSGITSDEAFARTIGTSRSTLVDVKTGEREPSLAFAIGIAQAFGLGLSEIVTWETETTAA ... not soluble
SSQSISPMRSISENSLVAMDFSGQKSRVIENPTEALSVAVEEGLAWRKKGSLRLGTHGS ... soluble
MGSDKIHHHHHHMFGYVLPLRGELKVKDYEKFKSYYCGLCLSIKKNYGNLPRSVLNYDMTFLAVLLDALEDKKCEFRLNRCIAHPYKKKYAIINNKALDYAAFFNICLVYYKLVDDVNDDKKISSKIKSLLLRGYFKKFPKPFYVYSDYIKSSLTELNKLEKKSNNLTLDEISHPFSDLTAFIISSYADNKPYKDILYNIGYNLGKWIYIMDAYDDLKEDIKLKKFNAINNTMNLDDKPYEDLIKDISPKISFVLSMCGSNCLHNLNLLPLKTNQDILFNILQYGLLDKMNNLNL ... not soluble
GSEKRQHSSQDVHVVLKLWKSGFSLDNGELRSYQDPSNAQFLESIRRGEVPAELRRLAHGGQVNLDMEDHRDEDFVKPKGAFKAFTGEGQKLGSTAPQVLST ... soluble

Give soluble on expression in E. coli for all sequences that follow.
1. GSEPYSLTAQQSSLIREDKSNAKLWNEVLASLKDRPASGSPFQLFLSKVEETFQCICCQELVFRPITTVCQHNVCKDCLDRSFRAQVFSCPACRYDLGRSYAMQVNQPLQTVLNQLFPGYGNGR
2. MSLDVGGSERIPSEMRAWEVTSPAPIDSSPSPIHFVKHPVPVPKTSEVLVRVISCGICHTDLHVAEGDLPVHHPHVIPGHEIIGRVVANGPQAGRFNLGDRIGVPWLRWTCGVCTYCRSGKENLCPNSLYTGWDHDGGYAEYVTVPEGFAYRIPSAFNSVTAAPLLCAGIIGYHAFRRANVPAGGRLGLYGFGGSAHLAAQIAIAQGIEVHVFTRGKDAQRFALELGAASAQGVYDPSPVSLDSSILFAPVGDIVPKALENLAAGGTLALAGIHLTDVPSLNYQNHLFHEKVLTSVESNTRRDGEEFLTLADRLKIHPKTTEYPFEKADEALRHLSHGDMQGACVLRISEGHHHHHH
3. GSSMKASSGDQGSPPCFLRFPRPVRVVSGAEAELKCVVLGEPPPVVVWEKGGQQLAASERLSFPADGAEHGLLLTAALPTDAGVYVCRARNAAGEAYAAAAVTVLEPPA
4. MGSDKIHHHHHHMNLATSERAQLATLLLEKGPNFPTLCGDWNTQELAAHLLIRESRPWIAAGMFLPGGSRIVADAMRKITQQPFEHVVAQWMKGPKWGYLGRYLDSVANRIEHFVHHEDVRRGETTVGQWQNLDLLPCNAKPRVLSERHSGELYDAMRWVAPLLLRRSACPVVIEPIGFPRLVVADAGVVSTRGDCVVHVRGDIGEVVLWILGRNQVDLFVDGPTHLLKKSSL

Result:
1: soluble; 2: not soluble; 3: soluble; 4: not soluble

====

- method: soluble on expression in E. coli; label from the status in PepcDB or PDB records
readoutKind: soluble on expression in E. coli

MANIYLNIEADSAQELKEILSQLATDNVVEVTQSLNTADKKATEEVEKAAKKEPAKKKKATAKKKEEVSTASTSDTEPSKTGEKVAPTDSETEEVSATADLHLGATKADVQEAMRKAMDKGKRPMIKTCFSRYNAEKLSDLKEEHYGKFITDLETLVGE ... not soluble
MGSDKIHHHHHHMKALALFSGGLDSMLAMKLITAQGIEVKALNINIGFGSTSDKSEIMKKRAAMVGADFEMIDVRNSYLQEVLFNPQYGYGKHFNPCIDCHAFMFKTALAMLKEENASFIITGEVLGQRPMSQRSDAMAKVKKLALDEEDLILRPMCAKNLPLTKPEREGWVDREKLEGIIGRSRKRQLELAAKFGLEDFESPGGGCLLTLDSFAKKIRDFIEFDKDMQVNDAQLLKYGRHLRLPNGAKMIIGRNELENTLLKGLKTPKYEAIEIGDLIGAYSLVDEKISEKDLELALKIALTYTKHEVGKSYELKFKNQAYTSIAFENKADINQFFIS ... not soluble
MEATNKMKVEVWSDIMCPFCYIGKRNYEAGLKQFADSNNIEIIWKSFQLDPNIPQDTAVTENVYQYLAERKGMSYEQSVQMHDSVVATAKKAGLDYNFDKAVIANSFNAHRMIQLAKTKDLGDAAEERLFYAYFTEGKNVGNSYVLIELGKDIGLTEAEVQTALTDDTYAYKVRQDVEEAQHLGVRGVPFFVFDRKYAVSGAQPPQAFLETLEKSFSEWRKEHPASPFEVSEGPSCSVDGCD ... not soluble

====

- method: soluble on expression in E. coli; label from the status in PepcDB or PDB records
readoutKind: soluble on expression in E. coli

MGSDKIHHHHHHMKILHLGKFYPLKGGMEKAILDIVRGISMQGVTCDLLCVSTEKAGVFPLNEHAHIYAMPSVCNVNSVRISPLLIPTLRKLCPNYDIIHIHCPNPMANLALYLSGYRGKVVLHWHSDILKQKYALKLYKPLQTWLIRRADVIIGTSPVYLENSPFLRGMEHKFRIVPLGCEAIVPSADRVSDIRKQYKGKRIIFALGRLIAYKGFRFLIEAARYLDDGYVVLIGGTGPLYNKLLKQINEENLQGKVCLLGYVTDDEVAQYYGACDVFCLSSVWKTEAFGLVQIEAMSCGKPVVATNIEGSGVPWVNRNGYSGLNVEPENPEALAKAIMKITSSEEAYRTYSRQARAHYNKMFVKERMLAGYEQVYASLYHEK ... not soluble
MAIPFFEEEHAPKSEPSGDQVDSPMAFSIDPGHDQVDFEGPPSAAEELPPPGATSEPVAPPSAEEQLLAWKFLAITMCKVLKQFYQQHKSSGKSSKLKATVQIQPQAQ ... not soluble
